Tested on: MDA-MB-435 melanoma
Test: NCI-60 one-dose screen, 48 h
Details: 10 µM unless noted
This is part of a sample that, as a whole, favours compounds with a hit. Of some 83,000 tested, about 20% had one in any assay. The source made the active and inactive calls. How the source made its calls: active means growth percent below 10; inactive means the rest.
Your answer must be one of the following: active, inactive

molecule	experimentalTarget	className
COc1ccc(/C=C2/CCc3cc4ccc(OC)cc4[o+]c32)c(O)c1	MDA-MB-435 melanoma	active
Cc1ccc2c(c1)CC(O)CC1C(=O)N(CCO)CC(=O)N21 (centres undefined)	MDA-MB-435 melanoma	inactive
COC(=O)c1cc(-c2ccc(OC)c(OC)c2)[nH]c1N/N=C/c1c(Cl)cccc1Cl	MDA-MB-435 melanoma	active
O=C1OCC2=C1C(c1cccc(F)c1)c1cc3c(cc1N2CCO)CCC3 (centres undefined)	MDA-MB-435 melanoma	active
CCN1C(=O)N(CC)C2C1NN=c1s/c(=C3\C(=O)N(C)c4ccccc43)c(=O)n12 (centres undefined)	MDA-MB-435 melanoma	active
O=C(c1ccccc1)[C@@H](c1ccccc1)[C@]1(O)C(=O)Nc2ccccc21	MDA-MB-435 melanoma	inactive
COc1cc(/C=C/C(=O)c2ccc(-n3cc(CN4CCN(c5cc6c(cc5F)c(=O)c(C(=O)O)cn6C5CC5)CC4)nn3)cc2)cc(OC)c1OC	MDA-MB-435 melanoma	inactive
O=C(CNc1ncco1)Nc1ccc(S(=O)(=O)c2ccc(NC(=O)CNc3ncco3)cc2)cc1	MDA-MB-435 melanoma	active

[in] Test call, this molecule: "CCCCCCCC/C=C\CCCCCCCCOc1ccc(CC(=O)NCC[N+]2(C)CCCC2)cc1"
[out] inactive

* * *

System: OVCAR-8 ovarian
Test: NCI-60 one-dose screen, 48 h (100 = growth as untreated, 0 = no growth, -100 = all killed)
Details: 10 µM unless noted
Compounds without any hit were thinned out: in the full panel of roughly 83,000, 20% have a hit.
Would you please tag the item t when its growth is 90% or above, and f when it is below?

Would you please look over these solved cases?
compound	experimentalTarget	className
COC(=O)c1cc(-c2cc(OC)c(OC)c(OC)c2)[nH]c1N/N=C/c1c(Cl)cccc1Cl	OVCAR-8 ovarian	f
Cc1ccc(Nc2nc(N)nc(N)c2N=O)cc1Cl	OVCAR-8 ovarian	t
COc1ccc(-n2c(=O)n(-c3ccc(-c4nc5ccc(F)cc5s4)cc3)c(=O)c3cccnc32)cc1	OVCAR-8 ovarian	t
O=C(OCC(O)C(=O)NC12CC3CC(CC(C3)C1)C2)c1cccc(Br)c1 (stereo not given)	OVCAR-8 ovarian	t

[in] Determine whether this compound has growth no lower than 90%: "O=C1C(Nc2ccc(Br)cc2)=C(I)C(=O)c2ncccc21"
[out] f

[in] For this compound, is measured growth 90% or higher? C#CCOc1ccc(C2=NN(C)C3N=C(Cl)c4ncn(C)c4N23)cc1OCC#C (stereo not given)
[out] t

[in] Hi, just wondering whether COc1ccc(C2=NN(C=O)C(c3ccc(Oc4nc5c(c(=O)n(C)c(=O)n5C)n4C)c(OC)c3)C2)cc1 (stereo not given) shows growth of 90% or higher.
[out] f

[in] Tell me whether growth is at least 90% here: "COc1cc(CNC(=O)CCCC/C=C/C(C)C)ccc1OCc1cn(-c2cccc([N+](=O)[O-])c2)nn1"
[out] f

[in] Please indicate if the recorded growth for "CCOc1ccc(N2C(=O)CCSC2=S)cc1" meets or exceeds 90%.
[out] t

[in] Confirm if growth reported for the compound "O=C(Nc1cccc(Cl)c1)Oc1c(Cl)c(Cl)c(Cl)c(Cl)c1Cl" is 90% or above.
[out] t
